FYI, the data here is from patent US20250382298A1.

# test-method-notes: Stability test in human liver microsomes
# Assay type: in vitro ADME, humans
# measurement-parameters: pH 7.4; human liver microsomes 0.5 mg/mL, 1.0 μM substrate; read-out: HLM 0.5 T½
test-readout: half-life at 1 μM (h)

a: CS(=O)(=O)Nc1ccc(C(=O)Nc2cn3ccnc3c(N3CCC(F)(F)CC3)n2)c(N2CC3CCC(C3)C2)c1
b: O=C(Nc1cn2c(F)cnc2c(N2CCC(F)(F)CC2)n1)c1ccc(NS(=O)(=O)CCO)cc1N1CCC2(CC1)CC2
q: Between these two entries, a and b , state which has the higher half-life at 1 μM. Mark your selection by writing its label.
a: b

----------
# test-method-notes: Pharmacokinetic test in mice
# Type: in vivo
# measurement-parameters: mouse, plasma, 30 mg/kg; BALB/c mice, PO @30mpk
test-readout: Cmax (µM)

Please review the entries below; each comes with its answer.
CS(=O)(=O)Nc1ccc(C(=O)Nc2cn3ccnc3c(N3CCC(F)(F)CC3)n2)c(N2CC3CCC(C3)C2)c1	15.3
O=C(Nc1cn2c(F)cnc2c(N2CCC(F)(F)CC2)n1)c1ccc(NS(=O)(=O)CCO)cc1N1CCC2(CC1)CC2	15.2
O=C(Nc1cc2cccnc2c(N2CCC(F)(F)CC2)n1)c1ccc(NS(=O)(=O)CCO)cc1N1CCC2(CC1)CC2	15.3

I: O=C(Nc1cc2cc[nH]c2c(N2CCC(F)(F)CC2)n1)c1ccc(NS(=O)(=O)CCO)cc1N1CCC2(CC1)CC2
II: Cn1ncc2cc(NC(=O)c3ccc(NS(=O)(=O)CCO)cc3N3CC4CCC(C4)C3)nc(N3CCC(F)(F)CC3)c21
III: CS(=O)(=O)Nc1ccc(C(=O)Nc2cn3ncnc3c(N3CCC(F)(F)CC3)n2)c(N2CCC3(CC2)CC3)c1
IV: O=C(Nc1cc2nccnc2c(N2CCC(F)(F)CC2)n1)c1ccc(NS(=O)(=O)CCO)cc1N1CC2CCC(C2)C1
q: Descending sort on Cmax required. Provide the labels, sequenced as the question asks.
a: II, I, III, IV
(II: 25.8 µM, I: 14.6 µM, III: 6.98 µM, IV: 4.66 µM)

----------
This listing pairs compounds with measured pIC50.
# Test system: BT-549 cells
# test-method-notes: Detection of cell proliferation activity by CCK8 method (BT-549)
# Assay type: cell-based
# measurement-parameters: CCK8, 96 h
# pIC50 is unitless: minus log10 of the molar concentration; print number only

Use these answered entries as a reference point.
O=C(Nc1cn2ccnc2c(N2CCC(F)(F)CC2)n1)c1ncc(NS(=O)(=O)CCO)cc1N1CCC2(CC1)CC2 [Compound 37]	6.21
O=C(Nc1cn2ccnc2c(N2CCC(F)(F)CC2)n1)c1cnc(NS(=O)(=O)CCO)cc1N1CCC2(CC1)CC2 [Compound 38]	7.50
O=C(Nc1cc2nn[nH]c2c(N2CCC(F)(F)CC2)n1)c1ccc(NS(=O)(=O)CCO)cc1N1CCC2(CC1)CC2 [Compound 28]	6.93

Short answer on BT-549 cells for O=C(Nc1cn2cncc2c(N2CCC(F)(F)CC2)n1)c1ccc(NS(=O)(=O)CCO)cc1N1CCC2(CC1)CC2 [Compound 27] , pIC50: 7.09

Entry O=C(Nc1cn2cnnc2c(N2CCC(F)(F)CC2)n1)c1ccc(NS(=O)(=O)CCO)cc1N1CCC2(CC1)CC2 [Compound 24] , tested on BT-549 cells, has a reported pIC50 of 7.28

----------
# test-method-notes: Pharmacokinetic test in mice
# Type: in vivo
# measurement-parameters: mouse, plasma, 30 mg/kg; BALB/c mice, PO @30mpk; read-out: t½ (converted)
test-readout: half-life (h)

CS(=O)(=O)Nc1ccc(C(=O)Nc2cc3cn[nH]c3c(N3CCC(F)(F)CC3)n2)c(N2CC3CCC(C3)C2)c1 [Compound 69]	8.2
CS(=O)(=O)Nc1ccc(C(=O)Nc2cn3ncnc3c(N3CCC(F)(F)CC3)n2)c(N2CCC3(CC2)CC3)c1 [Compound 57]	146
CS(=O)(=O)Nc1ccc(C(=O)Nc2cn3ccnc3c(N3CCC(F)(F)CC3)n2)c(N2CC3CCC(C3)C2)c1 [Compound 19]	16.5
O=C(Nc1cc2nccnc2c(N2CCC(F)(F)CC2)n1)c1ccc(NS(=O)(=O)CCO)cc1N1CC2CCC(C2)C1 [Compound 73]	3.8

1: O=C(Nc1cn2c(F)cnc2c(N2CCC(F)(F)CC2)n1)c1ccc(NS(=O)(=O)CCO)cc1N1CC2CCC(C2)C1 [Compound 51]
2: O=C(Nc1cc2cccnc2c(N2CCC(F)(F)CC2)n1)c1ccc(NS(=O)(=O)CCO)cc1N1CCC2(CC1)CC2 [Compound 21]
q: Of 1 and 2 , which shows the smaller half-life value? Let me know the label of the one you choose.
a: 2
(2: 5.4 h, 1: 62.3 h)

----------
# Tested on: HCT-116 cells
# test-method-notes: Mitotic index analysis, pH3 expression in HCT-116 cells
# Assay type: cell-based
# measurement-parameters: Homo sapiens, 24 h treatment
# Method: HCT-116 and HT-29 cells at the logarithmic growth phase were taken, digested with a cell lysis buffer (trypsin), centrifuged, counted, and seeded into a 96-well plate at an appropriate cell density (20000 cells/well), with 100 μL per well. […] Fluorescence signals at 700 nm and 800 nm were detected using a Li—COR Odyssey two-color near-infrared laser imager. […] The EC50 values were determined by fitting using the GraphPad Prism 7.0 software.
pEC50: −log10 of the molar value.
test-readout: pEC50

Take a look at these entries with their results.
CS(=O)(=O)Nc1ccc(C(=O)Nc2cc3ccsc3c(N3CCC(F)(F)CC3)n2)c(N2CCC3(CC2)CC3)c1	< 5.00
O=C(Nc1cn2cc(C(F)(F)F)nc2c(N2CCC(F)(F)CC2)n1)c1ccc(NS(=O)(=O)CCO)cc1N1CCC2(CC1)CC2	< 5.00
Cn1ncc2cc(NC(=O)c3ccc(NS(C)(=O)=O)cc3N3CCC4(CC3)CC4)nc(N3CCC(F)(F)CC3)c21	< 5.00

# evaluate next
Entry `O=C(Nc1cn2ccnc2c(N2CCC(F)(F)CC2)n1)c1ccc(NS(=O)(=O)CCO)cc1N1CCC2(CC1)CC2` ; pEC50 = < 5.00

----------
# test-method-notes: Pharmacokinetic test in rats
# Format: in vivo
# measurement-parameters: rat, plasma, 5 mg/kg; SD rats, PO @5mpk; read-out: t½ (converted)
test-readout: half-life (h)

Cc1cc(NC(=O)c2ccc(NS(=O)(=O)CCO)cc2N2CC3CCC(C3)C2)nc(N2CCC(F)(F)CC2)n1	7

1: O=C(Nc1cn2ccnc2c(N2CCC(F)(F)CC2)n1)c1ccc(NS(=O)(=O)CCO)cc1N1CC2CCC(C2)C1
2: O=C(Nc1cn2ccnc2c(N2CCOCC2)n1)c1ccc(NS(=O)(=O)CCO)cc1N1CCC2(CC1)CC2
q: Decide: 1 or 2 , by lowest recorded half-life. Refer to your chosen entry by its label in the reply.
a: 2
(2: 2.4 h, 1: 4.9 h)

----------
# test-method-notes: Stability test in human liver microsomes
# Assay type: in vitro ADME, humans
# measurement-parameters: pH 7.4; human liver microsomes 0.5 mg/mL, 1.0 μM substrate; read-out: HLM 0.5 CLint(liver)
test-readout: CLint scaled at 1 μM (mL/min/kg)

CS(=O)(=O)Nc1ccc(C(=O)Nc2cc3cc[nH]c3c(N3CCC(F)(F)CC3)n2)c(N2CCC3(CC2)CC3)c1	14.3

P: O=C(Nc1cc2c(c(N3CCC(F)(F)CC3)n1)COC2)c1ccc(NS(=O)(=O)CCO)cc1N1CCC2(CC1)CC2
Q: O=C(Nc1cn2c(F)cnc2c(N2CCC(F)(F)CC2)n1)c1ccc(NS(=O)(=O)CCO)cc1N1CCC2(CC1)CC2
R: CS(=O)(=O)Nc1ccc(C(=O)Nc2cn3ccnc3c(N3CCC(F)(F)CC3)n2)c(N2CC3CCC(C3)C2)c1
q: Which order do these items take when sorted by rising CLint scaled at 1 μM? List them. To answer, arrange all of the labels according to the requested order.
a: Q, R, P
(Q: 1.9 mL/min/kg, R: 11.6 mL/min/kg, P: 22.3 mL/min/kg)

----------
# target: cytochrome oxidase P450 2C19 (Homo sapiens (Human))
# Sequence (P33261 whole entry): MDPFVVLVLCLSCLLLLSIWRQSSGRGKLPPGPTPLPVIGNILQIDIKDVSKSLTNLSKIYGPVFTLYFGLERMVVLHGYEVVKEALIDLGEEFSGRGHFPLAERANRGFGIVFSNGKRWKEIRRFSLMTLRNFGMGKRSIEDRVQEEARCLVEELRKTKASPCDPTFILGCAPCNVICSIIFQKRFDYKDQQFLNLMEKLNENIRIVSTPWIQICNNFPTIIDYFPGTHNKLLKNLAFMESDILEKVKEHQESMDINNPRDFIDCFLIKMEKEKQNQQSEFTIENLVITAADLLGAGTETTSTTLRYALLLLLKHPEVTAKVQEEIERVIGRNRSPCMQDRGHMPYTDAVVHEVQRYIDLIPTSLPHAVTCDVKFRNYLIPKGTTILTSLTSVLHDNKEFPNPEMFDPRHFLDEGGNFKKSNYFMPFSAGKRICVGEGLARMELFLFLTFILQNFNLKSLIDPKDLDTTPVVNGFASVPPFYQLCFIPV
pIC50: −log10 of the molar value.
test-readout: pIC50

Result for O=C(Nc1cn2c(F)cnc2c(N2CCC(F)(F)CC2)n1)c1ccc(NS(=O)(=O)CCO)cc1N1CCC2(CC1)CC2 [Compound 34] , tested on cytochrome oxidase P450 2C19 (Homo sapiens (Human)), pIC50: < 5.00

----------
# test-method-notes: Stability test in rat liver microsomes
# Assay type: in vitro ADME, Sprague-Dawley rats
# measurement-parameters: Sprague-Dawley, pH 7.4; rat liver microsomes 0.5 mg/mL, 1.0 μM substrate; read-out: RLM 0.5 CLint(liver)
test-readout: CLint scaled at 1 μM (mL/min/kg)

Some solved entries appear below for comparison.
CS(=O)(=O)Nc1ccc(C(=O)Nc2cc3cc[nH]c3c(N3CCC(F)(F)CC3)n2)c(N2CCC3(CC2)CC3)c1	9
O=C(Nc1cn2c(F)cnc2c(N2CCC(F)(F)CC2)n1)c1ccc(NS(=O)(=O)CCO)cc1N1CCC2(CC1)CC2	4.4

1: CS(=O)(=O)Nc1ccc(C(=O)Nc2cn3ccnc3c(N3CCC(F)(F)CC3)n2)c(N2CC3CCC(C3)C2)c1
2: O=C(Nc1cc2ccsc2c(N2CCC(F)(F)CC2)n1)c1ccc(NS(=O)(=O)CCO)cc1N1CCC2(CC1)CC2
q: Returns: the argument ( 1 or 2 ) having the larger CLint scaled at 1 μM. Output the label that corresponds to your choice.
a: 1
